Test: DSSTox (CPDBAS) Carcinogenic Potency Database Summary SingleCellCall Results
Settings: animal chronic carcinogenicity bioassays, CPDB summary call
The source made the active and inactive calls.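 The calls were made as follows: active = a tumor-causing dose value with its tumor site reported for any sex and species group of a rodent or other animal cancer study; inconclusive = only studies judged inadequate by the national testing program; inactive = tested in at least one study, none positive.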
In this exercise, the only acceptable responses are 1 = active, -1 = inactive

Reference set (6 entries):
* O=[N+]([O-])c1ccc(NCCO)c(OCCO)c1 | -1
* COc1ccc(N)c(C)c1 | 1
* CCOC(=O)N(CC)N=O | 1
* CCOc1ccc(NC(C)=O)cc1[N+](=O)[O-] | 1
* CC1(C)[C@H](C(=O)O[C@H](C#N)c2cccc(Oc3ccccc3)c2)[C@@H]1C=C(Br)Br | -1
* S=[Se] | 1

Q) Recorded test outcome, item CN(N=O)c1cccnc1
A) -1

Q) Call for entry Cc1ccc2c(c1N)C(=O)c1ccccc1C2=O :
A) 1

Q) Can you look up the reported call for CCCCCCOc1cc(C)c(O)c(C)c1C for me?
A) -1

###

Experiment: DSSTox (CPDBAS) Carcinogenic Potency Database Summary SingleCellCall Results
Settings: animal chronic carcinogenicity bioassays, CPDB summary call
Active and inactive are the calls of the source.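 The calls were made as follows: active = a tumor-causing dose value with its tumor site reported for any sex and species group of a rodent or other animal cancer study; inconclusive = only studies judged inadequate by the national testing program; inactive = tested in at least one study, none positive.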
Choose the fitting class; nothing outside True for active, False for inactive is accepted.

Known results for compounds:
* CC(C)Oc1ccccc1OC(=O)N(C)N=O | True
* CCOc1ccccc1C(N)=O | True

Q) I would be grateful if you could indicate the recorded call for CNC[C@H](O)c1cccc(O)c1 .
A) False

Q) Dear all, I need the recorded test outcome for O=C1C2CC=CCC2C(=O)N1SC(Cl)(Cl)Cl (stereo not given) , thank you.
A) True

Q) Could you please tell me the result logged for O=[O+][O-] in this assay?
A) True

Q) Tell me the assay call for C[C@@H]1O[C@@]2(CS1)CN1CCC2CC1 please.
A) False

###

Test: DSSTox (CPDBAS) Carcinogenic Potency Database Summary SingleCellCall Results
Details: animal chronic carcinogenicity bioassays, CPDB summary call
Active and inactive are the calls of the source.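 The calls were made as follows: active = a tumor-causing dose value with its tumor site reported for any sex and species group of a rodent or other animal cancer study; inconclusive = only studies judged inadequate by the national testing program; inactive = tested in at least one study, none positive.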
One label from this list, please: TRUE = active, FALSE = inactive

- C=CCN(CC(C)O)N=O (stereo unspecified): TRUE
- CC(=O)Nc1ccc(C(=O)CCl)cc1: FALSE
- COC1=CC(=O)C[C@@H](C)[C@]12Oc1c(Cl)c(OC)cc(OC)c1C2=O: TRUE
- COc1ccc2c3c1O[C@H]1[C@@H](O)C=C[C@H]4[C@@H](C2)N(C)CC[C@@]341: FALSE
- CCOc1ccc(NC(N)=O)cc1: TRUE

Query compound follows.
Q) Recorded test outcome, item CC#N
A) FALSE

###

Experiment: DSSTox (CPDBAS) Carcinogenic Potency Database Summary SingleCellCall Results
Conditions: animal chronic carcinogenicity bioassays, CPDB summary call
Calls of active or inactive are those of the source.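 The calls were made as follows: active = a tumor-causing dose value with its tumor site reported for any sex and species group of a rodent or other animal cancer study; inconclusive = only studies judged inadequate by the national testing program; inactive = tested in at least one study, none positive.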
Allowed answers: Yes (active), No (inactive)

Solved cases (4 shown):
* CC(C)=NO | Yes
* Nc1ccc(-c2ccc(N)c(Cl)c2)cc1Cl | Yes
* Clc1ccccc1Cl | No
* CC(=O)Nc1ccc2c(c1)Cc1ccccc1-2 | Yes

Q) Identify the outcome logged in this assay for the compound shown: NC(=S)NNC=O
A) No

Q) Write down the call the test reported for this compound. Item: CC(C)C=O
A) No

Q) Assay result, entry CCCc1cc(=O)[nH]c(=S)[nH]1 — outcome?
A) Yes

Q) Dear colleague, could you share the recorded outcome for CNc1ncnc2c1ncn2[C@@H]1O[C@H](CO)[C@@H](O)[C@H]1O when you have a moment?
A) No

Q) Record lookup: outcome of this test for N ?
A) No

Q) Look up the recorded call for Cc1c(N)cccc1N in this test.
A) No

Q) Just curious, what result did Cn1c(=O)c2c(ncn2C)n(C)c1=O get here?
A) No

Q) Status in this test for Nc1ccc(N)cc1 ?
A) No

Q) Dear all, I need the recorded test outcome for CN(C)C(=S)S , thank you.
A) No

Q) Tell me the assay call for CC(C)C[C@H]1C(=O)N2CCC[C@H]2[C@]2(O)O[C@](NC(=O)[C@@H]3C=C4c5cccc6[nH]c(Br)c(c56)C[C@H]4N(C)C3)(C(C)C)C(=O)N12 please.
A) Yes

Q) # fetch the recorded call for O=[N+]([O-])c1ccc(O)c([N+](=O)[O-])c1 here
A) No

Q) Recorded test outcome, item C=CCN(N=O)C(N)=O
A) Yes
